Values were extracted from patent US20250382354A1.

# target.of.assay: SARS-CoV-2 HR2 peptide (SARS-CoV-2), P0DTC2
# test.method.notes: peptide ELISA
measurement.type: EC50 (µg/mL)
Use µg/mL as the unit, but write only the number.

hr2.020 (antibody, V domains shown) VH: EVQLVQSGAEVKKPGESLKISCKGSGYRFASHWIGWVRQMPGKGLQWMGIIYPGDSDTKYSPSFQGQVTISADKSINTVYLHWTSLKASDTAVYYCARRPPHLDGGDSPIRFDHWGQGTLVTVSS VL: QSVLTQPPSASGTPGQRVTISCSGSRSNIGSNDVYWYQQFPGTAPKLLIYRNNQRPSGVPDRFSGSKSGTSASLAISGLRSEDEADYYCATWDDRLTGVFGGGTKLTVV; 0.0353

--- query ---
What value of measured EC50 is listed for hr2.017 (antibody, V domains shown) VH: EVQLVESGGGLVQPGGSLRLSCAVSGFAFSSSWMHWIRQAPGRGLVWVSRINRDGSTTDYADSVKGRFTISRDNAKATLYLQMNSLRAEDTAVYYCATMGFDYWGQGALVTVSS VL: DIVMTQSPDSLAVSLGERATINCKSSQNVLYSSNNKNHLSWYQQKPGQPPKLLIYWASTRKSGVPDRFSGSGSGTDFTLTINSLQAEDVAVYYCQQYFSTPNTFGQGTKLEIK ? 0.0145
